biological target: KRas G12S (Homo sapiens, UniProt P01116, G12S); experiment: biochemical;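 further: TR-FRET displacement binding to KRas, read after one hour incubation at room temperature, IC50 from four-parameter fit of percent of control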
Sequence (P01116 1-169 isoform P01116-2 G12S): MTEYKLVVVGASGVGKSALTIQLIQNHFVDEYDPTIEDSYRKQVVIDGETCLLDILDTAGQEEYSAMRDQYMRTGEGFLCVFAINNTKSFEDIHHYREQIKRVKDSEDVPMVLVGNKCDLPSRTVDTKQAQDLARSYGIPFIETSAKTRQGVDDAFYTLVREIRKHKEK
reportedEndpoint: IC50 (µM)
The reply should be a number in µM, with the unit left off.

Past entries and their recorded results:
OCC1CCCCN(c2nc(OCC34CCCN3CCC4)nc3c(F)c(-c4cccc5cccc(F)c45)ncc23)C1 (stereo not shown) = 14.2
Fc1c(-c2cccc3cccc(F)c23)ncc2c(Nc3ccc4cn[nH]c4c3)nc(OCC34CCCN3CCC4)nc12 = 23.2
NS(=O)(=O)CC1CCCN(c2nc(OCC34CCCN3CCC4)nc3c(F)c(-c4cccc5cccc(Cl)c45)ncc23)C1 (stereo not shown) = 0.067
Fc1c(-c2cccc3cccc(F)c23)ncc2c(NCCCc3cc[nH]n3)nc(OCC34CCCN3CCC4)nc12 = 2.07
O=C1NC2(CCN(c3nc(OCC45CCCN4CCC5)nc4c(F)c(-c5cccc6cccc(F)c56)ncc34)CC2)CO1 = 7.11

# O=C1NCC2(CCCN(c3nc(OCC45CCCN4CCC5)nc4c(F)c(-c5cccc6cccc(CO)c56)ncc34)C2)N1 (stereo not shown) with KRas G12S (Homo sapiens, UniProt P01116, G12S): IC50 is 0.459

====

biological target: KRas G12V (Homo sapiens, UniProt P01116, G12V); experiment: biochemical
Sequence (P01116 1-169 isoform P01116-2 G12V): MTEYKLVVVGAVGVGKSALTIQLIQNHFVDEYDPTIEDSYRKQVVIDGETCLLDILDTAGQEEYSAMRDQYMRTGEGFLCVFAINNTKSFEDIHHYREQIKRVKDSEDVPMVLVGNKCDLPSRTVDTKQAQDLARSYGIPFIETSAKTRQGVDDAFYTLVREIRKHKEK
Each entry below lists one item and its recorded IC50 value.
The reply should be a number in nM, with the unit left off.

`CCc1cccc2cccc(-c3ncc4c(N5CCCOCC5)nc(OCC56CCCN5CCC6)nc4c3F)c12` has a reported IC50 of 699

CCc1c(F)ccc2cc(O)cc(-c3ncc4c(N5CCOC6(CCS(=N)(=O)CC6)C5)nc(OC[C@@]56CCCN5C[C@H](F)C6)nc4c3F)c12 (stereo partly drawn) has a reported IC50 of 82

Cc1n[nH]c(C2CCCN(c3nc(OCC45CCCN4CCC5)nc4c(F)c(-c5cc(O)cc6ccc(F)c(F)c56)ncc34)C2)n1 (stereo not drawn) has a reported IC50 of 5

O=C1NC(=O)C2(CCCN(c3nc(OCC45CCCN4CCC5)nc4c(F)c(-c5cccc6cccc(C(F)F)c56)ncc34)C2)N1 (stereo not drawn) has a reported IC50 of 469

====

biological target: KRas G12V (Homo sapiens, UniProt P01116, G12V); test: biochemical;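 further: KRas binding measured by TR-FRET displacement at room temperature, IC50 fitted from percent of control values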
// returns no (0) unless IC50 is strictly below 20 nM, in which case yes (1)

O=C1CC(CNc2nc(OCC34CCCN3CCC4)nc3c(F)c(-c4cccc5cccc(F)c45)ncc23)C(=O)N1 (stereo not shown) [Example 236] = no (0)
CCc1c(F)ccc2cc(O)cc(-c3ncc4c(N5CCC[C@]6(C5)C[C@@](C)(O)C6)nc(OCC56CCCN5CCC6)nc4c3F)c12 [Example 329] = no (0)
CNC(=O)c1cc2n(n1)CCCN(c1nc(OCC34CCCN3CCC4)nc3c(F)c(-c4cccc5cccc(F)c45)ncc13)C2 [Example 259] = no (0)
C[C@@H]1C[C@@H]1c1c(Cl)cc(O)cc1-c1ncc2c(N3CCCC(C)(O)C3)nc(OCC34CCCN3CCC4)nc2c1F (stereo partly shown) [Example 132] = yes (1)
CCc1c(F)ccc2cc(O)cc(-c3ncc4c(N5CCOC[C@@]6(C5)CC6(F)F)nc(OC[C@@]56CCCN5C[C@H](F)C6)nc4c3F)c12 [Example 498] = yes (1)

Regarding CCc1c(F)ccc2cc(O)cc(-c3ncc4c(N5CCCCC5)nc(OC[C@@H]5C[C@@H](O)CN5C)nc4c3F)c12 [Example 6] , kindly confirm whether its IC50 is beneath 20 nM.
yes (1)

Regarding C#Cc1c(F)ccc2cc(O)cc(-c3ncc4c(N5CCOC[C@](C)(O)C5)nc(OC[C@@]56CCCN5C[C@H](F)C6)nc4c3F)c12 (single isomer, unassigned) [Example 386] , kindly confirm whether its IC50 is beneath 20 nM.
yes (1)

Regarding CCc1c(F)ccc2cc(O)cc(-c3ncc4c(N5CCC[C@]6(CC(=O)N6)C5)nc(OCC5(CN6CCCC6)CC5)nc4c3F)c12 [Example 319] , kindly confirm whether its IC50 is beneath 20 nM.
yes (1)
